Origin of values: patent US20100261777

Measurement Target: T1, carboxypeptidase A (Bos taurus, UniProt P00730 P00730:111-419)
T1 sequence: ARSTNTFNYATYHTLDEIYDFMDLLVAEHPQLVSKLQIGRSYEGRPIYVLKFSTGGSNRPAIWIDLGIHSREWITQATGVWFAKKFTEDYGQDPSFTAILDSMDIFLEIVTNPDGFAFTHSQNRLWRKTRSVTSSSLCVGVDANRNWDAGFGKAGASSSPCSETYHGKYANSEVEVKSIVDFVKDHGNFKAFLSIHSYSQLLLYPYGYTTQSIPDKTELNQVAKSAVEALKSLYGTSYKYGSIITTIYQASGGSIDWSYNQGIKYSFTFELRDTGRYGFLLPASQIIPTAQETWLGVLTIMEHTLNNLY
Assay Text: inhibition; 10% LiCl, 30 C, hippuryl-L-phenylalanine 1 mM
Protocol Conditions: tags: bovine, zinc-dependent
Reported Endpoint: IC50 (nM)
State the answer as a number, implicitly in nM.

Any idea what its IC50 is? The binder is ds 14-mer (dsDNA) DNA 1: ATGTTCCTACATGA DNA 2: TCATGTAGGAACAT
100
